- System: NCI/ADR-RES ovarian
- test: NCI tumour cell line growth inhibition, 48 h; in the data active = GI50 below about 0.43 µM; inactive = the rest
Possible outcomes: TRUE = active, FALSE = inactive

[
  {
    "chemical_structure": "C[CH2][Sn]([CH2]C)([O]C(=O)c1cccc(OC)c1)[O][Sn]([CH2]C)([CH2]C)[O]C(=O)c1cccc(OC)c1",
    "assay_system": "NCI/ADR-RES ovarian",
    "qualitative_label": "FALSE"
  },
  {
    "chemical_structure": "CN(C)c1ccc(Nc2ncnc3ccccc23)cc1",
    "assay_system": "NCI/ADR-RES ovarian",
    "qualitative_label": "FALSE"
  },
  {
    "chemical_structure": "Oc1ccc(Nc2nc3ccccc3c3occc23)cc1",
    "assay_system": "NCI/ADR-RES ovarian",
    "qualitative_label": "FALSE"
  },
  {
    "chemical_structure": "COc1ccc(-c2nnc(COc3ccc(Cl)cc3Cl)o2)cc1OC",
    "assay_system": "NCI/ADR-RES ovarian",
    "qualitative_label": "FALSE"
  },
  {
    "chemical_structure": "COc1cc(C(=O)c2c(-c3ccccc3)oc3c(OC)cccc23)cc(OC)c1O",
    "assay_system": "NCI/ADR-RES ovarian",
    "qualitative_label": "FALSE"
  },
  {
    "chemical_structure": "CCOC(=O)/C=C/C1=C(c2ccsc2)c2ccc(OC)cc2CC1",
    "assay_system": "NCI/ADR-RES ovarian",
    "qualitative_label": "TRUE"
  },
  {
    "chemical_structure": "CCOC(=O)c1c(NC(=O)COc2cccc3cccnc23)sc(C(=O)N(C)C)c1C",
    "assay_system": "NCI/ADR-RES ovarian",
    "qualitative_label": "FALSE"
  },
  {
    "chemical_structure": "O=C(NC(=S)Nc1ccccn1)c1ccccc1",
    "assay_system": "NCI/ADR-RES ovarian",
    "qualitative_label": "FALSE"
  }
]
